Provide the recorded Max % inhibition for the entries that follow.
# TEST_SYSTEM: human PCSK9 (Homo sapiens, UniProt Q8NBP7)
# Sequence (Q8NBP7 153-692): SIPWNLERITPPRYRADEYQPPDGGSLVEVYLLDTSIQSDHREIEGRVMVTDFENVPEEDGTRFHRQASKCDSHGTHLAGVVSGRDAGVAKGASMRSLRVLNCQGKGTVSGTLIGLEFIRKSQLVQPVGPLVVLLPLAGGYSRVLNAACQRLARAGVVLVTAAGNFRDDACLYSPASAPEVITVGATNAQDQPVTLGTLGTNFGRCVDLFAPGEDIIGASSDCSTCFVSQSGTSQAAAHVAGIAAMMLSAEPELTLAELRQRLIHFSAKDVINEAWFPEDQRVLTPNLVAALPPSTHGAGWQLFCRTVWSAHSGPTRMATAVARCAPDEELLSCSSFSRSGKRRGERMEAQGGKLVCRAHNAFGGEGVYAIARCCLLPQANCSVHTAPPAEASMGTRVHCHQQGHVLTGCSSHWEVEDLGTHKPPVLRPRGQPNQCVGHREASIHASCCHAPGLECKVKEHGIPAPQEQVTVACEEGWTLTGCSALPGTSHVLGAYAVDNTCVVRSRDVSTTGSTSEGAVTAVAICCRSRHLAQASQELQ
# Sequence (Q8NBP7 31-152 partner limits assumed): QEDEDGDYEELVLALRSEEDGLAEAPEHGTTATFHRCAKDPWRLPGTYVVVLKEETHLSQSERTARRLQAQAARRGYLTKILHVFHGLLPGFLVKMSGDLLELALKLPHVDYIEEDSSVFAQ
# TEST_PROTOCOL: PCSK9 ligand binding assay (TR-FRET): interference with binding of human PCSK9 to human LDLR
# CONDITION_INFO: efficacy (Amax), 100% = 1 uM unlabeled human PCSK9, 0% = DMSO

Given item C/C=C/C[C@@H]1CC(=O)N(Cc2ccc(Cl)cc2Oc2ccc(-c3cnc(CN(C)C)n3C)cc2)[C@@H](C)C(=O)N[C@@H](CO)C(=O)N[C@@]2(Cc3ccc(Cl)cc3)CCCN(C2)C1=O [Compound 40] , the value recorded as its Max % inhibition is 107.8%

Entry under test: C[C@H]1C(=O)N[C@@H](CO)C(=O)N[C@@]2(Cc3ccc(Cl)cc3)CCCN(C2)C(=O)[C@H](CC2CC2)CC(=O)N1Cc1ccc(Cl)cc1Oc1ccc(-c2cnc(CN(C)C(C)(C)C)n2C)cc1 [Compound 162] . Its Max % inhibition was 114.4%

Noted for COC[C@@H]1NC(=O)[C@H](C)N(Cc2c(F)cc(Cl)cc2Oc2ccc(-c3cnc(CN(C)C(C)(C)C)n3C)cc2)C(=O)C[C@@H](C2CC(F)(F)C2)C(=O)N2CCC[C@@](Cc3ccc(Cl)cc3)(C2)N(C)C1=O [Compound 169] : its Max % inhibition reads 113.1%

---

Consider the following compounds; for each one, report its IC50.
# TEST_SYSTEM: human PCSK9 (Homo sapiens, UniProt Q8NBP7)
# TEST_PROTOCOL: PCSK9 ligand binding assay (TR-FRET): interference with binding of human PCSK9 to human LDLR
# CONDITION_INFO: Human PCSK9 Alexa Fluor 647 / Human LDLR extracellular domain-Europium Kryptate
# Protocol: Example 10: PCSK9 Ligand Binding Assay The PCSK9 binding of the compounds of the disclosure were measured using a time resolved fluorescence resonance energy transfer (TR-FRET) assay. This time resolved fluorescence resonance energy transfer (TR-FRET) assay measures the ability of a compound of the present disclosure to interfere with the binding of human PCSK9 to human LDLR, providing measures of both potency (IC50) and efficacy (Amax). Human PCSK9 Alexa Fluor 647 […]
// units = nM; emit number, no label

The recorded IC50 for COC[C@@H]1NC(=O)[C@H](C)N(Cc2c(F)cc(Cl)cc2Oc2ccc(-c3cnc(CN(C)C(C)(C)C)n3C)cc2)C(=O)C[C@@H](CC(F)(F)F)C(=O)N2CCC[C@@](Cc3ccc(Cl)cc3)(C2)N(C)C1=O is 1.78

The reported value for C[C@H]1C(=O)N[C@@H](CO)C(=O)N[C@@]2(Cc3ccc(Cl)cc3)CCCN(C2)C(=O)[C@H](CC2CC2)CC(=O)N1Cc1ccc(Cl)cc1Oc1ccc(-c2cnc(CN(C)C)n2C)cc1 in terms of IC50 is 0.596

Entry COC[C@@H]1NC(=O)[C@H](CCC(=O)N2CCC2)N(Cc2ccc(Cl)cc2Oc2ccc(-c3cnc(CN4CCCC4)n3C)cc2)C(=O)C[C@@H]([C@H]2CC(C)(C)c3ccccc32)C(=O)N(C)C[C@@H](Cc2ccc(Cl)cc2)N(C)C1=O.Cl [Compound 132, hydrochloride] ; IC50 = 231

Lab book: IC50 of C[C@H]1C(=O)N[C@@H](CO)C(=O)N[C@@]2(Cc3ccc(Cl)cc3)CCCN(C2)C(=O)[C@H]([C@@H]2CCc3ccccc32)CC(=O)N1Cc1ccccc1Oc1ccc(-c2cnc(CN(C)C)n2C)cc1 noted as 0.742

Reported IC50 for C[C@H]1C(=O)N[C@@H](CO)C(=O)N(C)[C@@]2(Cc3ccc(Cl)cc3)CCCN(C2)C(=O)[C@H](CC(F)(F)F)CC(=O)N1Cc1ccc(Cl)cc1Oc1ccc(-c2cnc(CN(C)C)n2C)cc1 was 0.187

So for COC[C@@H]1NC(=O)[C@H](C)N(Cc2c(F)cc(Cl)cc2Oc2ccc(-c3cnc(CN4CCC4)n3C)cc2)C(=O)C[C@@H](CC(F)(F)F)C(=O)N2CCC[C@@](Cc3ccc(Cl)cc3)(C2)N(C)C1=O , the logged IC50 turned out to be 1.18

Data point: C[C@H]1C(=O)N[C@@H](CO)C(=O)N[C@@]2(Cc3ccc(Cl)cc3)CCCN(C2)C(=O)[C@H]([C@@H]2CCc3ccccc32)CC(=O)N1Cc1ccc(Cl)cc1Oc1ccc(-c2cnc(C3=CCN(C)C3)n2C)cc1.Cl [Compound 77, hydrochloride] ; IC50 = 0.979

The compound identified as C[C@H]1C[C@H]([C@@H]2CC(=O)N(Cc3ccc(Cl)cc3Oc3ccc(-c4cnc(CN5CCCC5)n4C)cc3)[C@@H](C)C(=O)N[C@@H](CO)C(=O)N(C)[C@H](Cc3ccc(Cl)cc3)CN(C)C2=O)c2ccccc21.Cl registered its IC50 at 1.4

C[C@H]1C(=O)N[C@@H](CO)C(=O)N[C@@]2(Cc3ccc(Cl)cc3)CCCN(C2)C(=O)[C@H](Cc2ccccc2)CC(=O)N1Cc1c(F)cc(Cl)cc1Oc1ccc(-c2cnc(CN(C)C)n2C)cc1 yielded IC50 of 0.351
